Known binding signal of a selection of binders
ASSAY TARGET: PPARg:RXRa (Homo sapiens, UniProt P37231;P19793 full;full)
Sequence (P37231 29-505, chain 1 of 2): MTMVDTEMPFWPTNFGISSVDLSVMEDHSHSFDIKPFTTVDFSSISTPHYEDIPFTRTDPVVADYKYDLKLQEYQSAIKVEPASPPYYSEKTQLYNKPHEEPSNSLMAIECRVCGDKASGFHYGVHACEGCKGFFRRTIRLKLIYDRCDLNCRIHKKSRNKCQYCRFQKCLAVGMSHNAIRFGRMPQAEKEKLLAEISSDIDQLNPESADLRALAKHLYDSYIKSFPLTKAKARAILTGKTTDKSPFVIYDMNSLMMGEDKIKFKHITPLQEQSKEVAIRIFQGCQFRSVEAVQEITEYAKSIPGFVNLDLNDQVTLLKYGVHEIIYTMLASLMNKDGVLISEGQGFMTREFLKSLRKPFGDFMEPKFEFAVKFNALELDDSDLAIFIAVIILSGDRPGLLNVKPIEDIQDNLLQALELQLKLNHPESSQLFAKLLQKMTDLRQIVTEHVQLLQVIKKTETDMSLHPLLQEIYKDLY
Sequence (P19793 whole entry, chain 2 of 2): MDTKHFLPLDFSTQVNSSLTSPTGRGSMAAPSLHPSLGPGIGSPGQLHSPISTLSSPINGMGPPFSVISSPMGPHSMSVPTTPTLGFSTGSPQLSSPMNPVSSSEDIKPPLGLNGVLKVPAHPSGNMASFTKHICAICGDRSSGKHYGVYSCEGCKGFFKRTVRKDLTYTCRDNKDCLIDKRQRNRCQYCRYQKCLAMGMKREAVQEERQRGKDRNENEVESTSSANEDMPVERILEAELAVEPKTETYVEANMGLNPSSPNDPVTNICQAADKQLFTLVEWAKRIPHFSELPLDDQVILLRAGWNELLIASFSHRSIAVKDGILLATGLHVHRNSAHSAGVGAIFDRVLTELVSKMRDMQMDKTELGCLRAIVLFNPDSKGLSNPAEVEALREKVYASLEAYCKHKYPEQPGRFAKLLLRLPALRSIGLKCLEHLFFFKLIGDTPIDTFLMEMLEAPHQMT
PROTOCOL: no ligand; PBM; 180 nM : 90 nM RXRa; PBS pH 7.4, 2% milk, 0.02% Triton X-100, 1 mM DTT, BSA, 0.4 mg/ml salmon testes DNA
ASSAY SETUP: tags: His kept;His cleaved; copies: 1;1; label: surface-attached array probe

[[record]]
binder = "NRC3_wobSeed27_DR1_C6A_o1 (dsDNA) DNA 1: GCACTAGGAGGACAAAGGTCAGAGCTACGCCAGTGAGCGATTGACAGCGTAGAATGAAGG DNA 2: CCTTCATTCTACGCTGTCAATCGCTCACTGGCGTAGCTCTGACCTTTGTCCTCCTAGTGC"
test_value = "10 PBM z-score against 500 random probes"


As a next step, examine the binder that follows.
INPUT: Need binding signal of NRC3_wobSeed133_DR5_C18T_o1 (dsDNA) DNA 1: GCCGTCCAAGGTCAATGTTAGGTCAGTGAAAGCATTGCGATTGACAGCGTAGAATGAAGG DNA 2: CCTTCATTCTACGCTGTCAATCGCAATGCTTTCACTGACCTAACATTGACCTTGGACGGC , thanks.
OUTPUT: 4 PBM z-score against 500 random probes

Where these numbers come from: paper PMC6555819
